target: PGR (gene 5241) (UniProt P06401); assay: TOX21_PR_BLA_Followup_Agonist_ratio: Tox21 HEK293 Progesterone Receptor (PR) Agonism Beta-lactamase Follow-Up Assay, Ratio (AID 2283933)
Sequence (P06401 whole entry, looked up): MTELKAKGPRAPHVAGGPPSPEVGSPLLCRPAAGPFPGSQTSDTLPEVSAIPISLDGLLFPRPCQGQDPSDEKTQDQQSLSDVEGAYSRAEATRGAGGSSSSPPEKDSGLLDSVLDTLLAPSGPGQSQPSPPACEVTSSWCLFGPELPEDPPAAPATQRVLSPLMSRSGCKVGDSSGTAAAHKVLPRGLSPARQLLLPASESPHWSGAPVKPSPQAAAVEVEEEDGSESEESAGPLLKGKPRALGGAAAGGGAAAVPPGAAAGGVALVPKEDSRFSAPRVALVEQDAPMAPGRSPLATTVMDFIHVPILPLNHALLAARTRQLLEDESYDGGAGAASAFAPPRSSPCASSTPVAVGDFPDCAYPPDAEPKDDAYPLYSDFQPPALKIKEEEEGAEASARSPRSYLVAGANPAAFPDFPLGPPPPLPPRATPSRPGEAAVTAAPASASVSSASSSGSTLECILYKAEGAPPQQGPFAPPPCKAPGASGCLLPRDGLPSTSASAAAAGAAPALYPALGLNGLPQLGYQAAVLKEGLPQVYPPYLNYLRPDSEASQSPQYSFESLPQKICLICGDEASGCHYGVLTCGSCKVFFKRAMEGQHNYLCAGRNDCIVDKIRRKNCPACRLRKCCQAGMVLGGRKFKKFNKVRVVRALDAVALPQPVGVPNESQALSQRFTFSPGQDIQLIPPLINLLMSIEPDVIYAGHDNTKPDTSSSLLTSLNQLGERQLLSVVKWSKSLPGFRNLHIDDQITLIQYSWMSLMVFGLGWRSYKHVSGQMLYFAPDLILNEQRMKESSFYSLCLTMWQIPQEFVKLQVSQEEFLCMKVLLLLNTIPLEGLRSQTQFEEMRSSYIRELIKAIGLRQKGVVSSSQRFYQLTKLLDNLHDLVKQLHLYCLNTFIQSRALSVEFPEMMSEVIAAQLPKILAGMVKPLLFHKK
Records with an inconclusive call do not appear. Calls of active or inactive are those of the source. Rule for the calls: active = hit-call score of the fitted dose curve at least 0.9, where 1 is the maximum; inconclusive = response in the unintended direction; inactive = score below 0.9.
Field 'call' accepts active, inactive

Use these answered entries as a reference point.
>  <smiles.str>
C[C@@H]1CC(=O)NN=C1c1ccc(NN=C(C#N)C#N)cc1

>  <target.entity>
PGR (gene 5241) (UniProt P06401)

>  <category>
inactive

$$$$
>  <smiles.str>
CN1CCN(C2=Nc3cc(F)ccc3Cc3ccccc32)CC1

>  <target.entity>
PGR (gene 5241) (UniProt P06401)

>  <category>
inactive

$$$$
>  <smiles.str>
CC(=O)OCC(=O)[C@H]1CC[C@H]2[C@@H]3CCC4=CC(=O)CC[C@]4(C)[C@H]3CC[C@]12C

>  <target.entity>
PGR (gene 5241) (UniProt P06401)

>  <category>
active

$$$$
>  <smiles.str>
Clc1ccc2c(c1)Nc1ccccc1S2

>  <target.entity>
PGR (gene 5241) (UniProt P06401)

>  <category>
inactive

$$$$

Task: Which outcome was entered for the compound CC(=O)O[C@H]1CC[C@@]2(C)C(=CC[C@@H]3[C@@H]2CC[C@]2(C)C(C(C)=O)=CC[C@@H]32)C1 in this test?
Result: inactive

Task: Short answer needed: outcome of this test for COC(=O)[C@@H]1CC2=CC(=O)CC[C@]2(C)[C@@]23O[C@@H]2C[C@@]2(C)[C@@H](CC[C@@]24CCC(=O)O4)[C@H]13 ?
Result: inactive

###

test system: Thyroperoxidase (TPO), gene 54314; assay: CCTE_Simmons_AUR_rTPO: CCTE's Amplex UltraRed Assay for Thyroperoxidase (TPO) Inhibition, Simmons Lab (AID 2283662)
The source made the active and inactive calls. Rule for the calls: active = hit-call score of the fitted dose curve at least 0.9, where 1 is the maximum; inconclusive = response in the unintended direction; inactive = score below 0.9.
Form entry, call: pick from active, inactive

Solved entries:
>  <compound>
Oc1cccnc1

>  <category>
inactive

$$$$
>  <compound>
Cc1ccc(C=C2C(=O)C3(C)CCC2C3(C)C)cc1 (stereo not drawn)

>  <category>
inactive

$$$$
>  <compound>
CSc1nc2ccccc2s1

>  <category>
inactive

$$$$
>  <compound>
O=c1[nH]c2ccccc2s1

>  <category>
active

$$$$

Task: Please state the recorded outcome for this compound: O=c1cc(O)cc[nH]1
Result: inactive

Task: # outcome recorded in this test, key = O=[N+]([O-])c1ccc2[nH]c(=S)[nH]c2c1
Result: active

Task: Entry CN(C)C(=S)N(C)C : call = ?
Result: inactive

Task: Call for entry CCOC(=O)c1cccc(O)c1 :
Result: inactive

###

biological target: Cellular tumor antigen p53 (Homo sapiens) (UniProt P04637); assay: TOX21_p53_BLA_p3_ratio: Tox21 HCT-116 p53 Agonism Beta-lactamase Assay, Ratio, Phase 3 (AID 2283596)
Sequence (P04637 whole entry, looked up): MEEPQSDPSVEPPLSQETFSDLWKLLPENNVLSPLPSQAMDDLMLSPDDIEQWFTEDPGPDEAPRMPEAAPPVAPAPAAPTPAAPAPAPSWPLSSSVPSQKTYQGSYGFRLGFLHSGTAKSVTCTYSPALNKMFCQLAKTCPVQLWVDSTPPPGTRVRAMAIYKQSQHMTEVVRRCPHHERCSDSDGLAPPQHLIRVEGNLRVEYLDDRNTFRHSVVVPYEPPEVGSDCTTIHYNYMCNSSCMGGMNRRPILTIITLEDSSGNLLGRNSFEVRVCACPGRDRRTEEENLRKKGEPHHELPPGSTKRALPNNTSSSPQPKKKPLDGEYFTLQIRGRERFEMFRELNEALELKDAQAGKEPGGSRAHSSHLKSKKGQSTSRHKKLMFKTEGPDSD
Records with an inconclusive call do not appear. Activity calls are given as the source filed them. The calls were made as follows: active = hit-call score of the fitted dose curve at least 0.9, where 1 is the maximum; inconclusive = response in the unintended direction; inactive = score below 0.9.
Please state which outcome applies, choosing from active, inactive

Task: Hey, what did the test say about N=C(N)c1ccc(C=Cc2ccc(C(=N)N)cc2O)cc1 ?
Result: inactive

###

Experiment: UKN2_HCS_IMR90_cell_viability: Viability Assessment in the University of Konstanz (UKN) Leist Lab Neural Crest Cell Migration Assay in human induced IMR90 Pluripotent Stem Cells (UKN2) (AID 2284233);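 note: viability of neural crest cells differentiated from IMR90 iPSC measured by calcein-AM fluorescence imaging; cells exposed to compound for 24 h after a 24 h migration phase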
Description: UKN2_HCS_IMR90 is a cell-based, multiplexed-readout assay screening for neural crest cell migration and cell viability that uses IMR90 (neural crest cells differentiated from iPSC), a human embryo cell line, with measurements taken at […] after chemical dosing in a microplate: 96-well plate. […] The wells are coated with PLO/laminin/fibronectin. […] Quantification of migration and viability is done by high content imaging analysis.
The source made the active and inactive calls. Rule for the calls: active = hit-call score of the fitted dose curve at least 0.9, where 1 is the maximum; inactive = score below 0.9.
quantity: outcome

>  <compound>
CC(=O)N[C@@H](CC(=O)O)C(=O)O

>  <assay.value>
inactive

$$$$
>  <compound>
CCCCCC=C(C)C(CC)CCO (stereo not drawn)

>  <assay.value>
inactive

$$$$
>  <compound>
Cc1ccccc1

>  <assay.value>
inactive

$$$$

###

test: TOX21_p53_BLA_p3_viability: Viability Assessment in the Tox21 HCT-116 p53 Agonism Beta-lactamase Assay, Phase 3 (AID 2283593);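 note: cells exposed to compound for 16 h before reading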
Inconclusive results are not listed. The source made the active and inactive calls. Rule for the calls: active = hit-call score of the fitted dose curve at least 0.9, where 1 is the maximum; inconclusive = response in the unintended direction; inactive = score below 0.9.

>  <smiles.str>
CCCCOc1ccc(OCCCN2CCOCC2)cc1

>  <outcome>
inactive

$$$$
>  <smiles.str>
CS(=O)(=O)CCNCc1ccc(-c2ccc3ncnc(Nc4ccc(OCc5cccc(F)c5)c(Cl)c4)c3c2)o1

>  <outcome>
inactive

$$$$
>  <smiles.str>
c1ccc2cnncc2c1

>  <outcome>
inactive

$$$$

###

target: PGR (gene 5241) (UniProt P06401); assay: TOX21_PR_LUC_Followup_Antagonist: Tox21 HEK293 Progesterone Receptor (PR) Antagonism Luciferase Follow-Up Assay (AID 2283938);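 note: curve fitted upward as signal gain over DMSO baseline despite antagonist label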
Results filed as inconclusive are left out. Activity calls are given as the source filed them. Rule for the calls: active = hit-call score of the fitted dose curve at least 0.9, where 1 is the maximum; inconclusive = response in the unintended direction; inactive = score below 0.9.
Hi! Could you answer with just one of these? active, inactive

>  <molecule>
Clc1ccc2c(c1)Nc1ccccc1S2

>  <category>
active

$$$$
>  <molecule>
CC1(C)OC(=O)Nc2ccc(Br)cc21

>  <category>
inactive

$$$$
>  <molecule>
CC(C)(C)C(O)/C=C/c1ccc2c(c1)OCO2 (stereo unspecified)

>  <category>
inactive

$$$$
>  <molecule>
CCCC(=O)O[C@]1(C(=O)CO)CC[C@H]2[C@@H]3CCC4=CC(=O)CC[C@]4(C)[C@H]3[C@@H](O)C[C@@]21C

>  <category>
inactive

$$$$
>  <molecule>
CN1CCN(C2=Nc3cc(F)ccc3Cc3ccccc32)CC1

>  <category>
inactive

$$$$

Then there is this molecule:
Task: Identify the outcome logged in this assay for the molecule shown: C/C=C1\C(=O)C[C@H]2[C@@H]3CCC4=CC(=O)CC[C@]4(C)[C@H]3CC[C@]12C
Result: inactive

###

target: Cellular tumor antigen p53 (Homo sapiens); test: TOX21_p53_BLA_p3_ratio: Tox21 HCT-116 p53 Agonism Beta-lactamase Assay, Ratio, Phase 3 (AID 2283596)
Inconclusive results are not listed. The source made the active and inactive calls. Rule for the calls: active = hit-call score of the fitted dose curve at least 0.9, where 1 is the maximum; inconclusive = response in the unintended direction; inactive = score below 0.9.

>  <smiles.str>
CN1CCN(C2=Nc3cc(F)ccc3Cc3ccccc32)CC1

>  <target.entity>
Cellular tumor antigen p53 (Homo sapiens)

>  <outcome>
inactive

$$$$
>  <smiles.str>
Cc1ccccc1C(=O)O

>  <target.entity>
Cellular tumor antigen p53 (Homo sapiens)

>  <outcome>
inactive

$$$$
>  <smiles.str>
CCOC(=O)CC(=O)C(=O)OCC

>  <target.entity>
Cellular tumor antigen p53 (Homo sapiens)

>  <outcome>
inactive

$$$$
>  <smiles.str>
C1CSCCS1

>  <target.entity>
Cellular tumor antigen p53 (Homo sapiens)

>  <outcome>
inactive

$$$$

###

experiment: CCTE_Shafer_MEA_dev_network_spike_number: CCTE's Neural Network Formation Assay for Number of Network Spikes, Shafer Lab (AID 2284048);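 note: synchronized bursts across electrodes counted on days 5 7 9 12 and integrated as AUC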
Active and inactive are the calls of the source. How the source made its calls: active means hit-call score of the fitted dose curve at least 0.9, where 1 is the maximum; inactive means score below 0.9.
Respond with a class label; see Y for active, N for inactive

Study these solved cases before continuing.
>  <molecule>
CC(=O)N[C@@H](CC(=O)O)C(=O)O

>  <category>
N

$$$$
>  <molecule>
CCCCCC=C(C)C(CC)CCO (centres undefined)

>  <category>
N

$$$$
>  <molecule>
CC(CNC(=S)[S-])NC(=S)[S-].[Zn+2] (centres undefined)

>  <category>
Y

$$$$

Task: Hello, I am checking results. What call was entered for c1ccc2c(c1)ccc1c3ccccc3ccc21 ?
Result: N

###

test: CCTE_Shafer_MEA_dev_burst_duration_mean: CCTE's Neural Network Formation Assay for Mean Burst Duration, Shafer Lab (AID 2284045)
Activity calls are given as the source filed them. The calls were made as follows: active = hit-call score of the fitted dose curve at least 0.9, where 1 is the maximum; inactive = score below 0.9.
quantity: outcome

>  <molecule>
CCCCCC=C(C)C(CC)CCO (stereo not given)

>  <outcome>
inactive

$$$$
>  <molecule>
CN(C)CCCn1cc(C2=C(c3c[nH]c4ccccc34)C(=O)NC2=O)c2ccccc21

>  <outcome>
inactive

$$$$
>  <molecule>
[O]=[V]([OH])([OH])[OH]

>  <outcome>
inactive

$$$$
>  <molecule>
c1ccc2c(c1)ccc1c3ccccc3ccc21

>  <outcome>
inactive

$$$$

# evaluate next
So for CCCCCC(C)(CC)C(=O)NC (stereo not given) , the logged outcome turned out to be inactive

###

molecular target: Cellular tumor antigen p53 (Homo sapiens); experiment: TOX21_p53_BLA_p3_ratio: Tox21 HCT-116 p53 Agonism Beta-lactamase Assay, Ratio, Phase 3 (AID 2283596)
Inconclusive results are not listed. Activity calls are given as the source filed them. How the source made its calls: active means hit-call score of the fitted dose curve at least 0.9, where 1 is the maximum; inconclusive means response in the unintended direction; inactive means score below 0.9.
Your answer must be one of the following: active, inactive

Answered examples (5):
>  <molecule>
COc1cc(C[C@@H]2NCCc3cc(O)c(O)cc32)cc(OC)c1OC

>  <target.entity>
Cellular tumor antigen p53 (Homo sapiens)

>  <category>
inactive

$$$$
>  <molecule>
CCOC(=O)CCC(=O)O[C@H]1[C@H](O[C@@H]2[C@@H](C)[C@H](O[C@H]3C[C@@](C)(OC)[C@@H](O)[C@H](C)O3)[C@@H](C)C(=O)O[C@H](CC)[C@@](C)(O)[C@H](O)[C@@H](C)C(=O)[C@H](C)C[C@@]2(C)O)O[C@H](C)C[C@@H]1N(C)C

>  <target.entity>
Cellular tumor antigen p53 (Homo sapiens)

>  <category>
inactive

$$$$
>  <molecule>
NC(=O)C1(N2CCCCC2)CCN(CCCC(=O)c2ccc(F)cc2)CC1

>  <target.entity>
Cellular tumor antigen p53 (Homo sapiens)

>  <category>
inactive

$$$$
>  <molecule>
O=C(CCN1CCC(c2ccccc2)C1)c1ccc2c(c1)OCCO2 (stereo not drawn)

>  <target.entity>
Cellular tumor antigen p53 (Homo sapiens)

>  <category>
inactive

$$$$
>  <molecule>
CO[C@H]1[C@@H](O)[C@H](N)[C@@H](O[C@H]2O[C@H]([C@H](C)N)CC[C@H]2N)[C@H](O)[C@@H]1N(C)C(=O)CN

>  <target.entity>
Cellular tumor antigen p53 (Homo sapiens)

>  <category>
inactive

$$$$

We now examine a further molecule.
Task: Hi, sorry to bother you, what did the test record for COc1cc(Nc2c(C#N)cnc3cc(OCCCN4CCN(C)CC4)c(OC)cc23)c(Cl)cc1Cl ?
Result: active
